Reported amyloid nucleation score values for the following sequences.
Experiment: amyloid nucleation score (Sup35N fusion, yeast selection) (log enrichment); library NNK2; higher = more nucleation; inactive = no reads after selection;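 note: zero at mode of non-aggregating sequences after 7 days selection at 30°C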
recorded.endpoint: amyloid nucleation score

sequence_input=GCSVCDMTF numeric_value=0.073
sequence_input=AQNLGFHEMGLAKCCRVGLY numeric_value=0.233
sequence_input=RRNMVSWVSDDEQFSDKPLA numeric_value=0.121
sequence_input=PVFCTLYHAAWSHRIRISVF numeric_value=-1.57
sequence_input=GLGVSTKRLYFTMMADCFNG numeric_value=0.131
sequence_input=SWTHRAGYIKRMSE numeric_value=-0.212
sequence_input=SGISKTGLYASYWGYLSGGK numeric_value=-0.453
sequence_input=ISNLQGFLLQNSDLAHSWVA numeric_value=1.28
sequence_input=PVCFGIEVYDVRFVASNVPG numeric_value=0.313

* * *

Assay: amyloid nucleation score (Sup35N fusion, yeast selection) (log enrichment); library NNK2; higher = more nucleation; inactive = no reads after selection
Reported amyloid nucleation score values for the following substances.
recorded.endpoint: amyloid nucleation score

substance=ILVEGET numeric_value=-0.263
substance=RMCVWHMLVIGVRGKTGATR numeric_value=3.01
substance=SVVFLRLGYGKLRV numeric_value=-0.159
substance=GILMISDAYDIREYFKLVTF numeric_value=-1.32
substance=PMCISLHVTTKGAMFNRGCF numeric_value=7.18
substance=FRIGHSHGYLLM numeric_value=-0.805
substance=RRRPRGLEGFAERGLGDWTY numeric_value=1.36
substance=LLYIDLVVHVFQSGSSGRLL numeric_value=2.79
substance=VFYVCFKLQIIDGMLNWCKG numeric_value=7.24
substance=KKFSSMYRSEFGNSI numeric_value=-0.65
substance=LVIVVT numeric_value=3.1
substance=YIECFTSMQLP numeric_value=-0.397
substance=KFGLPREYNSSVPVGPASCL numeric_value=0.272
substance=WSTAFSKLNSSRKSD numeric_value=-0.582
substance=YVNFIVFTDMIWDS numeric_value=4.94
substance=GFLQSGCPSTLLSLRKRAIL numeric_value=0.307
substance=GYSTRIGASFGLGPVGCSAR numeric_value=3.06

* * *

Assay: amyloid nucleation score (Sup35N fusion, yeast selection) (log enrichment); library NNK3; higher = more nucleation; inactive = no reads after selection
recorded.endpoint: amyloid nucleation score

substance=NNTSGNLVCFSVKCNVIVPY result=2.42
substance=YWVTLFRSARVWMITLNLFD result=inactive
substance=LVFIWAKTHRHQLFVTEAEL result=inactive
substance=YSCFFIPWRVGAYRTDNFRS result=inactive
substance=WCMFMMSNWRVRPADLFCIS result=inactive
substance=LSNVVGRATGKRTTSYHEDA result=0.43
substance=LFFSRS result=inactive
substance=CEEPFETIS result=0.949
substance=MILILY result=inactive
substance=LIYVFIIFVMIFWVCCTMRS result=0.166
substance=DLPSMSIVIVIQKLYARVNR result=inactive
substance=LNFDNRNFFGDMSAESATPF result=inactive
substance=LIADHIVRSSSLMSWFSPSR result=inactive
substance=FDLSLDSMKFEAFYFVVRLV result=inactive
substance=FSIVMTRFSFGSRVGSFYNF result=0.151
substance=LSHYVMVTYRAKGRMAGRIW result=inactive
substance=IAVQLEILAY result=inactive

* * *

Experiment: amyloid nucleation score (Sup35N fusion, yeast selection) (log enrichment); library NNK1; higher = more nucleation; inactive = no reads after selection
recorded.endpoint: amyloid nucleation score

substance=RMEQSCWMTSECRRWKGVWL numeric_value=0.827
substance=TYSPQLLYNYPLCLVFLSCL numeric_value=2.83
substance=SSSEGRWMGYGP numeric_value=-0.276
substance=SKSRLL numeric_value=0.006
substance=VLLSQIVGIWAL numeric_value=-0.642
substance=FRRLRMLLILASKFGVD numeric_value=-0.392
substance=TVMHSAMIYILVPVSGSGQV numeric_value=5
substance=YYAHSGMWYAMSDQKGAVG numeric_value=0.552
substance=ERSYSNWAMG numeric_value=0.958
substance=WLINTPTHWVFVDIVWYWSK numeric_value=0.051
substance=LHIIRRNRDSIAFVYWTV numeric_value=0.756
substance=IAHFELMRHNVHLKWVESWL numeric_value=0.911
substance=TYERICGCMFCLTCSSDAF numeric_value=-0.19
substance=SYFRREDCFVFKVITLFIMS numeric_value=-0.675
substance=TVTYRLYVPATVCFKILFRR numeric_value=-0.625
substance=TGDVLIYWFLVTHRMTAVQV numeric_value=-0.096

* * *

Test: amyloid nucleation score (Sup35N fusion, yeast selection) (log enrichment); library NNK3; higher = more nucleation; inactive = no reads after selection
recorded.endpoint: amyloid nucleation score

substance=IIHGHHWFGYNSRLCC recorded_endpoint="amyloid nucleation score" result=inactive
substance=MVVQRNDYIVSVFSTLFPRS recorded_endpoint="amyloid nucleation score" result=1.6
substance=NRWTIPCFCGRKL recorded_endpoint="amyloid nucleation score" result=1.12
substance=FSMCCTWYFKFHL recorded_endpoint="amyloid nucleation score" result=0.596
substance=YSMVFHTWCMRVMRGVFIWM recorded_endpoint="amyloid nucleation score" result=inactive
substance=QTRELRSQLLMPFSITDVRS recorded_endpoint="amyloid nucleation score" result=inactive
substance=INFLCTDAFTMKFTGAYGKH recorded_endpoint="amyloid nucleation score" result=2.4
substance=TSLLAELLVWWE recorded_endpoint="amyloid nucleation score" result=inactive
substance=DYTRKVHTIEGSSYYWLNFS recorded_endpoint="amyloid nucleation score" result=1.36
substance=SRSSCRVIPT recorded_endpoint="amyloid nucleation score" result=inactive
substance=CHQKMSVA recorded_endpoint="amyloid nucleation score" result=inactive
substance=KGQYLSIGYNNFRG recorded_endpoint="amyloid nucleation score" result=-0.764
substance=DNSVALIDYSWAVTRI recorded_endpoint="amyloid nucleation score" result=inactive
substance=NLFLRFIVTLWDRFCPYFYQ recorded_endpoint="amyloid nucleation score" result=inactive
substance=NYGQALHWLLRGGSMWSQGT recorded_endpoint="amyloid nucleation score" result=inactive
substance=TRSGST recorded_endpoint="amyloid nucleation score" result=inactive
substance=ILLRPPGWSRQWSVRWGNYP recorded_endpoint="amyloid nucleation score" result=inactive
substance=SARRTVYLFQNSHRVHPFLF recorded_endpoint="amyloid nucleation score" result=inactive
substance=LSRLFLSRVGHVIYTKSSVD recorded_endpoint="amyloid nucleation score" result=inactive
substance=CGIRHTVLVVSRVGGYVWCL recorded_endpoint="amyloid nucleation score" result=-0.156
substance=MLCLWFNEFHDVCPT recorded_endpoint="amyloid nucleation score" result=inactive
substance=KIWFCNWFANNYFMIANSST recorded_endpoint="amyloid nucleation score" result=0.627
substance=SAFKAKL recorded_endpoint="amyloid nucleation score" result=inactive
substance=GQSVMQSAMGSISKFE recorded_endpoint="amyloid nucleation score" result=inactive
substance=IVVCRKEDSAQRFSFVRLSD recorded_endpoint="amyloid nucleation score" result=inactive
substance=IEHSQYPAQAKPRLGSCLVL recorded_endpoint="amyloid nucleation score" result=inactive
substance=TLSYVCTNAGGSVFMTCLFF recorded_endpoint="amyloid nucleation score" result=-0.104
substance=RNGRKYSIWLVGVSH recorded_endpoint="amyloid nucleation score" result=inactive
substance=YFYSHRYI recorded_endpoint="amyloid nucleation score" result=inactive
substance=RMFLHLTRNKCVRVKKASQE recorded_endpoint="amyloid nucleation score" result=inactive
substance=CLNGSCAMLSGLVCLLCNRQ recorded_endpoint="amyloid nucleation score" result=2.38
substance=FTNLYMPTRERHCRGSHMW recorded_endpoint="amyloid nucleation score" result=inactive
substance=SASKKLTAFALVVFLRV recorded_endpoint="amyloid nucleation score" result=inactive
substance=QHMFQAWFTVNKFSRGECGF recorded_endpoint="amyloid nucleation score" result=inactive
substance=RRGRPVLCRLHPGRWLRSRR recorded_endpoint="amyloid nucleation score" result=-0.401
substance=LFNYVEEIRAVRRIRLGYIK recorded_endpoint="amyloid nucleation score" result=inactive

* * *

Assay: amyloid nucleation score (Sup35N fusion, yeast selection) (log enrichment); library NNK2; higher = more nucleation; inactive = no reads after selection
# binarize amyloid nucleation score: threshold 0.3 inclusive, high side Yes, low side No

substance=TRAPGRDFVGEGEACALDET category_label=No
substance=GEHRQGCYFGAIVFAILMFS category_label=No
substance=GVRYSFSTTRKFTELSFNIC category_label=Yes
substance=MRCNFADSAYRMISMTV category_label=Yes
substance=LEVKARFP category_label=No
substance=FNDHWARRRRDFVNIWFWSE category_label=No
substance=SKMICPHYK category_label=Yes
substance=LRVPIR category_label=No
substance=GGYGLICCYQMLEDSTKDMM category_label=No
substance=LSVSCGVKCLEWADMMAHQV category_label=No
substance=VGPMEGGYPGVAQLLGEKRN category_label=Yes
substance=VNTSFATFSSVSLEGLLSMV category_label=No
substance=KCCVENCRWHGRLSSLLFAM category_label=Yes
substance=LNISYSAH category_label=No
substance=VSASEEVPAFCCVTVAQ category_label=No
substance=WWNTGCVGLMCICTLFSGSR category_label=Yes
substance=KIWMSLHLRELRLC category_label=Yes
